- tested-target: T1, human TIM-3, full length, on cells (human, UniProt Q8TDQ0 22-301)
- T1 construct: Also used here for native TIM-3 on PBMC in the functional rows; also called CHOK1-hTIM-3; HEK293-h TIM-3
- T1 sequence: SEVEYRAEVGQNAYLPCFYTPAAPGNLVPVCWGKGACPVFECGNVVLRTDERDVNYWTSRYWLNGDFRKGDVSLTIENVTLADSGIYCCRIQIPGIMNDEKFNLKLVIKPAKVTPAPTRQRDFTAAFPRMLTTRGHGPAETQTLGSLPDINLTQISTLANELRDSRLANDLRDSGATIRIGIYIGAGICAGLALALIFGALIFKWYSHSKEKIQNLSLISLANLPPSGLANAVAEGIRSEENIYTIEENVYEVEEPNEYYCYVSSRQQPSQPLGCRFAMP
- test-details: FACS, CHOK1-hTIM-3 cells; antibody 0 nM (blank)
measured-metric: Mean fluorescence intensity
Just the number, please.

18D2H2 (TIM-3 antibody purified from hybridoma, chimeric antibody of Example 2) (antibody, V domains shown, From hybridoma of Harbour H2L2 transgenic mice: human variable regions, rat constant regions) VH: EVQLVESGGDLVQPGGSLRLSCAASGFTFSTYWMTWVRQAPGRGLEWVANIKQDGSAKYYVDSVKGRFTLSRDDAKNSLYLQMNSLRAEDTAVYYCARGSNWFDYWGQGTLVTVSS VL: ETVMTQSPATLSVSPGERATLSCRANQNVYSNLAWYQQKPGQAPRLLIYDASTRATGFPARFSGSGSGTEFTLTISSLQSEDFAVYYCQQYNNWPLTFGGGTKVEIK : 2.9
57F4E5 (TIM-3 antibody purified from hybridoma, chimeric antibody of Example 2) (antibody, V domains shown, From hybridoma of Harbour H2L2 transgenic mice: human variable regions, rat constant regions) VH: EVQLVESGGGLVQPGGSLRLSCAASGFTFSSYWMSWVRQAPGKGLEWVANIKQDGSEKYYVDSVKGRFTISRDSAKNSLYLQMNSLRAEDTAMYFCARDSNFFDYWGQGTLVTVSS VL: ETVMTQSPATLSVSPGERATLSCRASQSVSSNLAWYQRKPGQAPRLLIYFSSTRATGIPARFSGSGSGTEFTLTISSLQSEDFAVYYCQQYNNWPLTFGGGTKVEIK : 2.9
134H3G6 (TIM-3 antibody purified from hybridoma, chimeric antibody of Example 2) (antibody, V domains shown, From hybridoma of Harbour H2L2 transgenic mice: human variable regions, rat constant regions) VH: EVQLVESGGGLVQPGGSLRLSCAASGFTFSNSWMTWVRQAPGKGLEWVANIKQAGTEKYYVDSVKGRFTISRDNAKNSLYLQMNSLRAEDTAVYYCNSGSNYFDYWGQGTLVTVSS VL: EIVMTQSPATLSVSPGERATLSCRARQNFYSNLAWYQQKPGQAPRLLIYGASTRATGIPARFSGSGSGTEFTLTISSLQSEDFAVYYCQQYNNWPLTFGGGTKVEIK : 3

Kindly consider the entry below.
Requested read-out: Mean fluorescence intensity. Entry: 7A4F10 (TIM-3 antibody purified from hybridoma, chimeric antibody of Example 2) (antibody, V domains shown, From hybridoma of Harbour H2L2 transgenic mice: human variable regions, rat constant regions) VH: EVQLLESGGGLVQPGGSLRLSCAASGFTFRTHLISWVRQAPGKGLEWVAAITGSGGSTYYADSVKGRFIISRDNSKNTLFLQMNSLRAEDTAVYYCAKDGGSGSYDDFWGQGTLVTVSS VL: ETVLTQSPVTLSLSPGERATLSCRASQSVGSYLAWYQQKPGQAPRLLIYDASNRATGIPARFSGSGSGTDFTLTISSLEPEDFAVYYCQQRSNWPPTFGQGTKVEIK
2.9

Taken from patent US20220033501A1.
